System: HLE;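 also: growth inhibition of human HLE cells, read out by a cell viability assay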
Test: cells
Format: functional, cell-based, Homo sapiens
Conditions: Homo sapiens, HLE
Description: SANGER: Inhibition of human HLE cell growth in a cell viability assay.
For each record, write down the corresponding IC50.
# number only, unit nM dropped from output

Query: What does the record list as IC50 for CC(=O)O[C@@]12CO[C@@H]1C[C@H](O)[C@@]1(C)C(=O)[C@H](O)C3=C(C)[C@@H](OC(=O)[C@H](O)[C@@H](NC(=O)OC(C)(C)C)c4ccccc4)C[C@@](O)([C@@H](OC(=O)c4ccccc4)[C@H]21)C3(C)C [DOCETAXEL] ?
Response: 4.05

Query: Follow-up item: `COC(=O)CNC(=O)C(=O)OC`
Response: 57700

Query: Follow-up item: Cc1ccc(Nc2nccc(N(C)c3ccc4c(C)n(C)nc4c3)n2)cc1S(N)(=O)=O [PAZOPANIB]
Response: 1640

Query: Follow-up item: CN(C)C/C=C/C(=O)Nc1cc2c(Nc3ccc(F)c(Cl)c3)ncnc2cc1O[C@H]1CCOC1 [AFATINIB]
Response: 350

---

Test system: A388;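 also: growth inhibition of human A388 cells, read out with a cell viability assay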
Test: cells
Type: functional, cell-based, Homo sapiens
Details: Homo sapiens, A388
Description: SANGER: Inhibition of human A388 cell growth in a cell viability assay.
pIC50: −log10 of the molar value.
Measured metric: pIC50

Query: What does the record list as pIC50 for C=C1C(=O)O[C@@H]2C3O[C@]3(C)CC/C=C(\C)CC[C@@H]12 (some centres undefined) ?
Response: < 5.30

Query: Follow-up item: Cc1cc(Nc2cc(N3CCN(C)CC3)nc(Sc3ccc(NC(=O)C4CC4)cc3)n2)n[nH]1 [TOZASERTIB]
Response: 6.47

Query: Follow-up item: CN(C)C/C=C/C(=O)Nc1cc2c(Nc3ccc(F)c(Cl)c3)ncnc2cc1O[C@H]1CCOC1 [AFATINIB]
Response: 6.43

Query: Follow-up item: `CC(=O)O[C@@H]1[C@@H](OC(C)=O)[C@@H](O)[C@H](Oc2c(-c3ccc(O)cc3)oc3cc(O)cc(O)c3c2=O)O[C@H]1C`
Response: < 5.00

Query: Follow-up item: CN(c1ncccc1CNc1nc(Nc2ccc3c(c2)CC(=O)N3)ncc1C(F)(F)F)S(C)(=O)=O [PF-00562271]
Response: < 5.59

Query: Follow-up item: Cc1cnc(-c2cnc(NCCNc3ccc(C#N)cn3)nc2-c2ccc(Cl)cc2Cl)[nH]1 [LADUVIGLUSIB]
Response: < 5.59

Query: Follow-up item: COc1cc(F)c(F)c(Nc2ccc(I)cc2F)c1NS(=O)(=O)C1(CC(O)CO)CC1 (centres undefined)
Response: < 5.30

Query: Follow-up item: `O=C1N=C(NCc2cccs2)S/C1=C\c1ccc2ncccc2c1`
Response: < 5.30

Query: Follow-up item: CNC(=O)c1cc(Oc2ccc(NC(=O)Nc3ccc(Cl)c(C(F)(F)F)c3)cc2)ccn1 [SORAFENIB]
Response: 5.80

---

Tested on: DSH1;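 also: growth inhibition of human DSH1 cells, measured with a cell viability readout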
Assay: cells
Format: functional, cell-based, Homo sapiens
Settings: Homo sapiens, DSH1
Description: SANGER: Inhibition of human DSH1 cell growth in a cell viability assay.
Measured metric: pIC50
Scale for pIC50: -log10 of concentration given in mol/L; no unit attached.

Query: What does the record list as pIC50 for COc1cc([C@@H]2c3cc4c(cc3[C@@H](O[C@@H]3O[C@@H]5CO[C@@H](C)O[C@H]5[C@H](O)[C@H]3O)[C@H]3COC(=O)[C@H]23)OCO4)cc(OC)c1O [ETOPOSIDE] ?
Response: 5.63

Query: Follow-up item: `Cn1cncc1[C@@](N)(c1ccc(Cl)cc1)c1ccc2c(c1)c(-c1cccc(Cl)c1)cc(=O)n2C`
Response: 5.07

---

Tested on: HCC1143
Experiment: cells
Type: functional, cell-based
Settings: Homo sapiens
Description: SANGER: Inhibition of human HCC1143 cell growth in a cell viability assay.
Measured metric: IC50

Query: What does the record list as IC50 for `CN(c1ncccc1CNc1nc(Nc2ccc3c(c2)CC(=O)N3)ncc1C(F)(F)F)S(C)(=O)=O` ?
Response: > 2.56 µM

Query: Follow-up item: `Cc1ccc(Nc2nccc(N(C)c3ccc4c(C)n(C)nc4c3)n2)cc1S(N)(=O)=O`
Response: > 8 µM

Query: Follow-up item: `Cn1cncc1[C@@](N)(c1ccc(Cl)cc1)c1ccc2c(c1)c(-c1cccc(Cl)c1)cc(=O)n2C`
Response: 13.3 µM

Query: Follow-up item: `Cc1cnc(-c2cnc(NCCNc3ccc(C#N)cn3)nc2-c2ccc(Cl)cc2Cl)[nH]1`
Response: > 2.56 µM

---

Test system: T84
Experiment: cells
Assay type: functional, cell-based, Homo sapiens
Conditions: Homo sapiens, T84
Description: SANGER: Inhibition of human T84 cell growth in a cell viability assay.
Measured metric: IC50

Query: What does the record list as IC50 for `CC(=O)O[C@@H]1[C@@H](OC(C)=O)[C@@H](O)[C@H](Oc2c(-c3ccc(O)cc3)oc3cc(O)cc(O)c3c2=O)O[C@H]1C` ?
Response: > 10000 nM

Query: Follow-up item: O=C(NOCC1CC1)c1ccc(F)c(F)c1Nc1ccc(I)cc1Cl [CI-1040]
Response: > 10000 nM

Query: Follow-up item: Cc1ccc(Nc2nccc(N(C)c3ccc4c(C)n(C)nc4c3)n2)cc1S(N)(=O)=O [PAZOPANIB]
Response: > 8000 nM

Query: Follow-up item: `O=C1N=C(NCc2cccs2)S/C1=C\c1ccc2ncccc2c1`
Response: > 5000 nM

Query: Follow-up item: CN(Cc1cnc2nc(N)nc(N)c2n1)c1ccc(C(=O)N[C@@H](CCC(=O)O)C(=O)O)cc1 [METHOTREXATE]
Response: > 200 nM

Query: Follow-up item: Cn1cc(C2=C(c3ccc(Cl)cc3Cl)C(=O)NC2=O)c2ccccc21 [SB-216763]
Response: > 10000 nM

Query: Follow-up item: C=CCc1cccc(/C=N/NC(=O)CN2CCN(Cc3ccccc3)CC2)c1O [PAC-1]
Response: 1030 nM

Query: Follow-up item: O=C(c1cc(Cc2n[nH]c(=O)c3ccccc23)ccc1F)N1CCN(C(=O)C2CC2)CC1 [OLAPARIB]
Response: > 5000 nM

Query: Follow-up item: COc1ccc(-c2ccc3c(N4CCOC[C@@H]4C)nc(N4CCOC[C@@H]4C)nc3n2)cc1CO [AZD-8055]
Response: > 2000 nM

Query: Follow-up item: Cc1cnc(-c2cnc(NCCNc3ccc(C#N)cn3)nc2-c2ccc(Cl)cc2Cl)[nH]1 [LADUVIGLUSIB]
Response: > 2560 nM

Query: Follow-up item: CCC1=C[C@@H]2CN(C1)Cc1c([nH]c3ccccc13)[C@@](C(=O)OC)(c1cc3c(cc1OC)N(C)[C@H]1[C@@](O)(C(=O)OC)[C@H](OC(C)=O)[C@]4(CC)C=CCN5CC[C@]31[C@@H]54)C2 [VINORELBINE]
Response: 53.9 nM

---

Test system: MEL-JUSO
Assay: cells
Format: functional, cell-based, Homo sapiens
Conditions: Homo sapiens, MEL-JUSO
Description: SANGER: Inhibition of human MEL-JUSO cell growth in a cell viability assay.
For each record, write down the corresponding IC50.
# number only, unit µM dropped from output

Query: What does the record list as IC50 for `Cn1cncc1[C@@](N)(c1ccc(Cl)cc1)c1ccc2c(c1)c(-c1cccc(Cl)c1)cc(=O)n2C` ?
Response: 0.0234

Query: Follow-up item: `O=C(NOCC1CC1)c1ccc(F)c(F)c1Nc1ccc(I)cc1Cl`
Response: 5.74

Query: Follow-up item: `Nc1ccn([C@@H]2O[C@H](CO)[C@@H](O)[C@@H]2O)c(=O)n1`
Response: 0.0858

Query: Follow-up item: `CN(c1ncccc1CNc1nc(Nc2ccc3c(c2)CC(=O)N3)ncc1C(F)(F)F)S(C)(=O)=O`
Response: 1.73

---

Test system: GB-1;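 also: growth of GB-1 cells judged by a viability assay, IC50 marks the concentration inhibiting growth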
Assay: cells
Assay type: functional, cell-based, Homo sapiens
Conditions: Homo sapiens, GB-1
Description: SANGER: Inhibition of human GB-1 cell growth in a cell viability assay.
Measured metric: IC50

Query: What does the record list as IC50 for CCC(=O)N1CCN(c2ccc(-n3c(=O)ccc4cnc5ccc(-c6cnc7ccccc7c6)cc5c43)cc2C(F)(F)F)CC1 [TORIN1] ?
Response: 15.5 nM

Query: Follow-up item: CN(C)C/C=C/C(=O)Nc1cc2c(Nc3ccc(F)c(Cl)c3)ncnc2cc1O[C@H]1CCOC1 [AFATINIB]
Response: > 500 nM

Query: Follow-up item: CNC(=O)c1cc(Oc2ccc(NC(=O)Nc3ccc(Cl)c(C(F)(F)F)c3)cc2)ccn1 [SORAFENIB]
Response: > 4000 nM

Query: Follow-up item: Nc1ccn([C@@H]2O[C@H](CO)[C@@H](O)[C@@H]2O)c(=O)n1 [CYTARABINE]
Response: > 2000 nM

Query: Follow-up item: C[C@]1(O)C[C@@H](c2nc(-c3ccc4ccc(-c5ccccc5)nc4c3)c3c(N)nccn32)C1 [LINSITINIB]
Response: > 2560 nM

Query: Follow-up item: O=C(c1cc(Cc2n[nH]c(=O)c3ccccc23)ccc1F)N1CCN(C(=O)C2CC2)CC1 [OLAPARIB]
Response: > 5000 nM

Query: Follow-up item: COc1ccc(C2=N[C@@H](c3ccc(Cl)cc3)[C@@H](c3ccc(Cl)cc3)N2C(=O)N2CCNC(=O)C2)c(OC(C)C)c1 [NUTLIN-3]
Response: > 8000 nM
